Experiment: Pharmacokinetics of compound A in the mouse
Type: in vivo
Conditions: plasma, ip, 19 mg/kg as printed
Readout: half-life (h)
Just the number in h, nothing appended.

# molecule COc1cc(-c2ccc(Nc3ccccc3C(=O)O)c(OC)c2)ccc1Nc1ccccc1C(=O)O ; its half-life = 2.1

----------
Molecular target: Bcl-xL (Homo sapiens, UniProt Q07817)
Sequence (Q07817 whole entry): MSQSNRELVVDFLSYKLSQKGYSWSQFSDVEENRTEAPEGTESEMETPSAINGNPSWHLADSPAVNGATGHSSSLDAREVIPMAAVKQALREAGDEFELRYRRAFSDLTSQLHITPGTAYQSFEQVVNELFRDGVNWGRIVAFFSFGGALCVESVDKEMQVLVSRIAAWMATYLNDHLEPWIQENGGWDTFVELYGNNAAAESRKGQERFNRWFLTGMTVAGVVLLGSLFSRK
pIC50: −log10 of the molar value.
Readout: pIC50

Bcl-xL (Homo sapiens, UniProt Q07817) data for COc1cc(-c2ccc(Nc3ccccc3C(=O)O)c(OC)c2)ccc1Nc1ccccc1C(=O)O ; its pIC50: < 4.80

----------
Assay: Pharmacokinetics of compound A in the mouse
Format: in vivo
Conditions: plasma, ip, 10 mg/kg
Readout: half-life (min)
Just the number in min, nothing appended.

# molecule COc1cc(-c2ccc(Nc3ccccc3C(=O)O)c(OC)c2)ccc1Nc1ccccc1C(=O)O ; its half-life = 126

These entries and their values trace back to patent US9351971B2.
